target: furin, P09958; assay: furin cleavage Z-score vs untreated control; higher = more cleavage, active = 3.5 or more, inactive = 1 or less, 8 variable residues between constant flanks; conditions: 7.5 min;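 note: purified furin at 1:10 enzyme:substrate in 50 mM HEPES pH 7.5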
Sequence (P09958 whole entry): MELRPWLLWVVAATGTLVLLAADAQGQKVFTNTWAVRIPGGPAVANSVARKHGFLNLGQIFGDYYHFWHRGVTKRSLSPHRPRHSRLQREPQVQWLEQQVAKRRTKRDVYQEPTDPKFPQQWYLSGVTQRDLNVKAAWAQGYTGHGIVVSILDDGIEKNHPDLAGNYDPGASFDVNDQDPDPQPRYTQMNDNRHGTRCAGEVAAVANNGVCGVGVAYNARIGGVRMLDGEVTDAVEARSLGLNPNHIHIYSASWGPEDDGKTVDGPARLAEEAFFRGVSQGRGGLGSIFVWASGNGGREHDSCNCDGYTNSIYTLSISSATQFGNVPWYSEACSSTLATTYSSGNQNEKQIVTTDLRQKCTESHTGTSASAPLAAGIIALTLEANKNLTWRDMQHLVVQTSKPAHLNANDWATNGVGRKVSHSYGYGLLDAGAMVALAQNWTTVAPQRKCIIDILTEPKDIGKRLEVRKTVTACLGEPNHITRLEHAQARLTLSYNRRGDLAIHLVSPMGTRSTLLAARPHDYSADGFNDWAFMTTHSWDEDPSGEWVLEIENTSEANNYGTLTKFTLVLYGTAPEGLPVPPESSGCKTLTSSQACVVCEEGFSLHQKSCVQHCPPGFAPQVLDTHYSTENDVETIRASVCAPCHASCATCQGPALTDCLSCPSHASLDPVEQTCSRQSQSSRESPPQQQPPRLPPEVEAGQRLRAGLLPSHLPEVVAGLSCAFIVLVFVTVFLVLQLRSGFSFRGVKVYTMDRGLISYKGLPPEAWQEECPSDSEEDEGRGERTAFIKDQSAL
The list shows a part of the results. How many sequences the whole screen found active is unknown.
Please use Condition met whenever furin cleavage Z-score is not below 0.4, and Condition not met whenever it is.

The following sequences have reported results that may help.
- RESIDUES: "CALYSRVGRSAGNASASA [FS-617]"
  LABEL_VALUE: "Condition met"
- RESIDUES: "CAVPPRYPRDAGNASASA [FS-311]"
  LABEL_VALUE: "Condition met"

Task: Form field: furin cleavage Z-score at least 0.4? Entry: CANDCPNSSIAGNASASA [HC263]
Result: Condition met

Task: Evaluate CARRKREKTQAGNASASA [FS-3165] : furin cleavage Z-score at minimum 0.4?
Result: Condition met

Task: Identify whether the reported furin cleavage Z-score of the following sequence is 0.4 or greater: CAPSGCPPDSAGNASASA [HC1347]
Result: Condition met

Task: Could you tell me if the measured furin cleavage Z-score of CARYPRDVRDAGNASASA [FS-2538] reaches 0.4 or more?
Result: Condition met

Task: Does the sequence CARYQRSHDDAGNASASA [FS-2320] have recorded furin cleavage Z-score that is 0.4 or more?
Result: Condition met
